B1: library; a variant is named by its letters at N, in order (parent)
chain: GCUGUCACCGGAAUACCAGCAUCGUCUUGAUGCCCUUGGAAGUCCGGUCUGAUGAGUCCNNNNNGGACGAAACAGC

Variants of: B1
procedure_text: FACS-Seq fitted mean relative fluorescence mCherry/BFP without ligand (log10 relative fluorescence); higher = higher reporter protein expression
run_parameters: HEK293T, ligand present: no
metric: FACS-Seq fitted mean (log10)
The reply should be a number, written without any unit.

Form: variant = AUAUG ; FACS-Seq fitted mean (log10) = 0.794

Form: variant = CCCAA ; FACS-Seq fitted mean (log10) = 0.563

Form: variant = CAAGC ; FACS-Seq fitted mean (log10) = 0.66

Form: variant = CAGCA ; FACS-Seq fitted mean (log10) = 0.319

Form: variant = AAAGC ; FACS-Seq fitted mean (log10) = 1.03

Form: variant = UGAGU ; FACS-Seq fitted mean (log10) = 0.7

Form: variant = AUCUA ; FACS-Seq fitted mean (log10) = 0.874

Form: variant = UGAUU ; FACS-Seq fitted mean (log10) = 0.448
